# System: 20-HETE formation (CYP4) in RLM
# runDescription: IC50 determination, 20-HETE formation in RLM
# Assay type: biochemical, rat
# assayContext: RLM 300 μg/ml, AA 100 μM, 12 concentrations
assayReadout: IC50 (nM)

Worked set:
entrySmiles: O=C1CCCN1c1ccc(C2CCN(c3cn[nH]c3)CC2)cc1
assayTarget: 20-HETE formation (CYP4) in RLM
IC50 (nM): 570
//
entrySmiles: Clc1ccc(CC2CCN(c3cn[nH]c3)CC2)cc1
assayTarget: 20-HETE formation (CYP4) in RLM
IC50 (nM): 120

a = COc1ccc(C2CCN(c3cn[nH]c3)CC2)cc1F
b = O=C1CCCN1Cc1ccc(C2CCN(c3cn[nH]c3)CC2)cc1
Problem: Given the entries a and b , determine which has the lower reported IC50. Kindly give the label for the entry you pick.
a
(a: 340 nM, b: 720 nM)
